Reference source for all entries: patent EP4680608B1

# targetOfAssay: Human DHODH (Homo sapiens, UniProt Q02127)
# Construct: C-terminal His6-tagged HsDHODH residues 29-395 in pET-22b (start ^29MATGDE); His6 (C)
# Sequence (Q02127 29-395): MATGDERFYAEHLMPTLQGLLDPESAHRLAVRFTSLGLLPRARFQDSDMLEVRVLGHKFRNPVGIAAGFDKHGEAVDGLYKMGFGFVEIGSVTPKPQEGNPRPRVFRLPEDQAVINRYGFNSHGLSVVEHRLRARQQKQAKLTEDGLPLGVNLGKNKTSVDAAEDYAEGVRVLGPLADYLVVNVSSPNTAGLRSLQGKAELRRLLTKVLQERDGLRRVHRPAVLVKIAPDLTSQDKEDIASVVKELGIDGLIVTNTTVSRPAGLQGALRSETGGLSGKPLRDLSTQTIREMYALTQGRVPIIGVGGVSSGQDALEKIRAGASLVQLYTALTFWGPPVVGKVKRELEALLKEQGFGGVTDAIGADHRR
# assayName: DHODH inhibition, steady-state DCIP assay (human DHODH)
# settings: recombinant HsDHODH, DCIP method, 25°C, 5 nM enzyme; top concentration 100 µM or 30 µM
pIC50: −log10 of the molar value.
assayReadout: pIC50

- CC[C@@](O)(c1ccc(C(F)(F)F)nc1)c1c2ncn(C3CC3)c(=O)c2nn1C (single isomer, unassigned): 4.85
- CCn1ccc2c([C@](C)(O)c3ccc(C(F)(F)F)c(Cl)c3)n(C)nc2c1=O (single isomer, unassigned): 4.39
- CC[C@@](O)(c1ccc(F)c(Cl)c1)c1c2cnn(C3CC3)c(=O)c2nn1C (single isomer, unassigned): 5.60
- CCn1cc(C)c2c([C@H](O)c3ccc(Cl)c(F)c3)n(C)nc2c1=O (single isomer, unassigned): 4.47
- CC[C@@](N)(c1ccc(C(F)(F)F)c(Cl)c1)c1c2ncn(C3CC3)c(=O)c2nn1C (single isomer, unassigned): 5.85
- CC[C@@](O)(c1ccc(F)c(Cl)c1)c1c2ccn(C3CC3)c(=O)c2nn1C (single isomer, unassigned): 6.17
- CC[C@@](O)(c1ccc(C(F)(F)F)c(Cl)c1)c1c2cnn(C3CC3)c(=O)c2nn1C (single isomer, unassigned): 5.77
- CC[C@@](N)(c1ccc(C(F)(F)F)c(F)c1)c1c2ccn(C3CC3)c(=O)c2nn1C (single isomer, unassigned): 5.89
- CC[C@@](N)(c1cnc(C(F)(F)F)c(Cl)c1)c1c2ccn(C3CC3)c(=O)c2nn1C (single isomer, unassigned): 4.89
- Cn1nc2c(=O)n(C3CC3)ccc2c1[C@](O)(c1ccc(F)c(Cl)c1)C1CC1 (single isomer, unassigned): 4.66
- Cn1nc2c(=O)n(C3CC3)cnc2c1[C@](O)(c1ccc(C(F)(F)F)c(Cl)c1)C(F)(F)F (single isomer, unassigned): 5.25
- Cn1nc2c(=O)n(C3CC3)cnc2c1[C@](N)(c1ccc(C(F)(F)F)c(Cl)c1)C(F)(F)F (single isomer, unassigned): 4.52
- CC[C@@](O)(c1ccc(C(F)(F)F)c(C#N)c1)c1c2cnn(C3CC3)c(=O)c2nn1C (single isomer, unassigned): 5.32
- Cn1nc2c(=O)n(C3CC3)cnc2c1[C@](C)(N)c1ccc(C(F)(F)F)c(Cl)c1 (single isomer, unassigned): 4.70
- CC(C)n1cnc2c([C@](O)(c3ccc(C(F)(F)F)c(Cl)c3)C(F)(F)F)n(C)nc2c1=O (single isomer, unassigned): 4.85
- Cn1nc2c(=O)n(C3CC3)ccc2c1[C@](O)(c1ccc(F)c(Cl)c1)C(F)(F)F (single isomer, unassigned): 5.04
